All figures here come from PubChem BioAssay AID1851.

- target-desc: Cytochrome P450 2C19 (Homo sapiens) (UniProt P33261)
- Sequence (P33261 whole entry, looked up): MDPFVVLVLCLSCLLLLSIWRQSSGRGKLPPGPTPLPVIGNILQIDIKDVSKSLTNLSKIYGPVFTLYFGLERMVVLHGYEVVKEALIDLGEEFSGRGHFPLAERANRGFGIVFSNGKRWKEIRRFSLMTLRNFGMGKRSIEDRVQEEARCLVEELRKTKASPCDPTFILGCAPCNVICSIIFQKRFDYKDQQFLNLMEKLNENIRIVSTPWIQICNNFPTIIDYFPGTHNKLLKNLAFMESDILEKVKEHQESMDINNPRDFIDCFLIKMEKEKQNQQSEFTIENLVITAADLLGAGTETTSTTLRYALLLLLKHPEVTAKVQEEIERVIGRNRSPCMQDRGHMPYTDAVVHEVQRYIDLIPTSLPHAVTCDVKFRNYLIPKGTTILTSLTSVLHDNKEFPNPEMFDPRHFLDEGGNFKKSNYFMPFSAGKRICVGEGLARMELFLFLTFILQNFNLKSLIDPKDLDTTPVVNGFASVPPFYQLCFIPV
- assay-comment: Cytochrome panel assay with activity outcomes
- cond: recombinant CYP, pro-luciferin dealkylation, luminescence, p450-cyp2c19; series mostly up to 57.1 µM
Hit rate of the full screen: of about 16,000 compounds, about 5,800 (36%) were called active. Inconclusive results (about 23%) are left out. The list shows a part of the results.
endpoint: AC50

Please review the following examples before continuing.
compound: O=C(Oc1ccccc1)N1CCC2(CC1)CN(c1ccncc1)C2
target-desc: Cytochrome P450 2C19 (Homo sapiens) (UniProt P33261)
endpoint: AC50
result-value: 7.94 µM (active)
//
compound: O=C(Oc1ccccc1)N1CCC[C@@]2(CCN(c3ccncc3)C2)C1
target-desc: Cytochrome P450 2C19 (Homo sapiens) (UniProt P33261)
endpoint: AC50
result-value: 5.01 µM (active)
//
compound: CCOC(=O)c1cnc(-c2ccccc2)nc1Oc1ccc(Cl)cc1
target-desc: Cytochrome P450 2C19 (Homo sapiens) (UniProt P33261)
endpoint: AC50
result-value: inactive
//
compound: COC(=O)N1CCC2(CCCN(c3ccc(-c4ccccc4)cc3)C2)CC1
target-desc: Cytochrome P450 2C19 (Homo sapiens) (UniProt P33261)
endpoint: AC50
result-value: inactive
//
compound: CCOC(=O)c1oc2ccccc2c1NC(=O)c1ccc(S(=O)(=O)N(C)C)cc1
target-desc: Cytochrome P450 2C19 (Homo sapiens) (UniProt P33261)
endpoint: AC50
result-value: inactive
//
compound: COc1ccc(C(=O)O/N=C/c2ccc(S(=O)c3ccc(Cl)cc3)nc2)cc1 (stereo unspecified)
target-desc: Cytochrome P450 2C19 (Homo sapiens) (UniProt P33261)
endpoint: AC50
result-value: 14.1 µM (active)
//
compound: COC(=O)N1CCC[C@@]2(CCN(c3ccncc3)C2)C1
target-desc: Cytochrome P450 2C19 (Homo sapiens) (UniProt P33261)
endpoint: AC50
result-value: inactive
//
compound: COc1ccc(CCNC[C@H](O)c2ccc(O)cc2)cc1OC
target-desc: Cytochrome P450 2C19 (Homo sapiens) (UniProt P33261)
endpoint: AC50
result-value: inactive
//
compound: COc1ccccc1C(=O)O/N=C1/CCCc2c1ccc(OC)c2[N+](=O)[O-]
target-desc: Cytochrome P450 2C19 (Homo sapiens) (UniProt P33261)
endpoint: AC50
result-value: 0.631 µM (active)
//
compound: CCCCSc1nnc(-c2ccc(C)cc2)n1C
target-desc: Cytochrome P450 2C19 (Homo sapiens) (UniProt P33261)
endpoint: AC50
result-value: 14.1 µM (active)

As a next step, examine the compound that follows.
Prompt: Looking for the measured AC50 of CCOC(=O)Nc1ccc(C(=O)Oc2ccccc2)c(O)c1 , can you help?
Completion: 3.55 µM (active)
